# targetDesc: UniProt P22455
# protocolSummary: FGFR Enzymatic Assay (FRET peptide phosphorylation), FGFR4
pIC50: −log10 of the molar value.
measuredMetric: pIC50

# input State the recorded pIC50 for this entry: COc1cc2[nH]nc(-c3ccc(N4CCOCC4)nc3)c2nc1-c1cccc(C)c1C [Example 44]
# output < 7.00

# input May I ask what pIC50 has been recorded for COc1cc2[nH]nc(-c3cnn(C4CN(C(C)=O)C4)c3)c2nc1-c1cccc2c1CCC2 [Example 22] ?
# output 7.00 to 7.40

# input Requested field: pIC50. Item: COc1cc2[nH]nc(-c3cnn(C4CN(C(=O)[C@H]5COCCN5C)C4)c3)c2nc1-c1cccc2c1CCC2 [Example 127]
# output 7.00 to 7.40

# input Fill in: pIC50 of COc1cc2[nH]nc(-c3ccc(C4CN(C(=O)CN(C)C)C4)nc3)c2nc1-c1cccc2c1CCC2 [Example 174] is ___
# output 7.00 to 7.40

# input Quick check: pIC50 of COc1cc2[nH]nc(-c3ccc(C4CCN(C(=O)[C@H](C)O)CC4)nc3)c2nc1-c1cccc(C)c1C [Example 77] ?
# output < 7.00

# input Which pIC50 is reported for this compound? COc1cc2[nH]nc(-c3cnn(C4CN(C(=O)CO)C4)c3)c2nc1-c1cccc2c1CCC2 [Example 116]
# output 7.00 to 7.40

###

# targetDesc: wild-type un-phosphorylated FGFR2 (Homo sapiens, UniProt P21802)
# Sequence (P21802 22-821): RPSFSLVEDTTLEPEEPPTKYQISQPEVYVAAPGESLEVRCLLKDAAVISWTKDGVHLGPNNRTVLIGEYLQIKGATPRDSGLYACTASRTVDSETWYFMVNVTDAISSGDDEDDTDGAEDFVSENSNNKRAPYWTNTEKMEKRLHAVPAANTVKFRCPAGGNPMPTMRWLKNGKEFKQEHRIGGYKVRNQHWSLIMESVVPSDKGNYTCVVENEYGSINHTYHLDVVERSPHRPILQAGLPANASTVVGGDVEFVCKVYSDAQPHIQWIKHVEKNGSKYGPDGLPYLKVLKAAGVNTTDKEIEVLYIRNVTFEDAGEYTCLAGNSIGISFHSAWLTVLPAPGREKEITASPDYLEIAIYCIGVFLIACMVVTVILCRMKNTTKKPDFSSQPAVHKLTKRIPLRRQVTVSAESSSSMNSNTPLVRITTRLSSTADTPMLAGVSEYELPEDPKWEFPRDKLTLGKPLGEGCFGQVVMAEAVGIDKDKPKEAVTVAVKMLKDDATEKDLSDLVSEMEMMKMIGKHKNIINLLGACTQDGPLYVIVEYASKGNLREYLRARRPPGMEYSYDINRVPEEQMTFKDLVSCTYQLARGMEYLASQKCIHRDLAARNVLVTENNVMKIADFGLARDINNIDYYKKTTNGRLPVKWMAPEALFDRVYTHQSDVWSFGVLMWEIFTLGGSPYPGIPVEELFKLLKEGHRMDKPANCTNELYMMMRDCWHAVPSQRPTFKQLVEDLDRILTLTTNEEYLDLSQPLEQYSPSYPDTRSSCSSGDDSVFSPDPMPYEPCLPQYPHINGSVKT
# protocolSummary: FGFR Enzymatic Assay (FRET peptide phosphorylation), FGFR2
measuredMetric: IC50

Take a look at these entries with their results.
{"columns": ["molecule", "IC50"],
 "data": [
  ["COc1cc2[nH]nc(-c3ccc(N4CCN(C(C)C)CC4)cc3)c2nc1-c1cccc2c1CCC2 [Example 62]", "< 6 nM"],
  ["CCNC(=O)N1CCN(c2ccc(-c3n[nH]c4cc(OC)c(-c5cccc6c5CCC6)nc34)cn2)CC1 [Example 59]", "< 6 nM"],
  ["COc1cc2[nH]nc(-c3ccc(N4CCN(C)CC4)nc3)c2nc1-c1cccc2c1CCC2C#N (single isomer, unassigned) [Example 186]", "< 6 nM"]
]}

# input Query (molecule): COc1cc2[nH]nc(-c3ccc(C4CN(C(=O)C5CCCO5)C4)nc3)c2nc1-c1cccc2c1CCC2 (stereo not shown) [Example 172] ; field requested: IC50
# output < 6 nM

# input Requested field: IC50. Item: COc1cc2[nH]nc(-c3ccc(C4CN(C(=O)[C@@H]5CCCCN5C)C4)nc3)c2nc1-c1cccc2c1CCC2 [Example 173]
# output < 6 nM

# input Entry under review: COc1cc2[nH]nc(-c3ccc(C4(C#N)CCN(C(=O)[C@H]5COCCN5C)C4)nc3)c2nc1-c1cccc2c1CCC2 (stereo partly shown) [Example 195] . Reported IC50?
# output < 6 nM

# input Fill in the blank: the reported IC50 of COc1cc2[nH]nc(-c3cnn(C4CN(C(=O)[C@@H]5CCN5C)C4)c3)c2nc1-c1cccc2c1CCC2 [Example 119] is ____.
# output < 6 nM

###

Listed next: entries and their corresponding pIC50.
# targetDesc: wild-type un-phosphorylated FGFR3 (Homo sapiens)
# Sequence (P22607 23-806): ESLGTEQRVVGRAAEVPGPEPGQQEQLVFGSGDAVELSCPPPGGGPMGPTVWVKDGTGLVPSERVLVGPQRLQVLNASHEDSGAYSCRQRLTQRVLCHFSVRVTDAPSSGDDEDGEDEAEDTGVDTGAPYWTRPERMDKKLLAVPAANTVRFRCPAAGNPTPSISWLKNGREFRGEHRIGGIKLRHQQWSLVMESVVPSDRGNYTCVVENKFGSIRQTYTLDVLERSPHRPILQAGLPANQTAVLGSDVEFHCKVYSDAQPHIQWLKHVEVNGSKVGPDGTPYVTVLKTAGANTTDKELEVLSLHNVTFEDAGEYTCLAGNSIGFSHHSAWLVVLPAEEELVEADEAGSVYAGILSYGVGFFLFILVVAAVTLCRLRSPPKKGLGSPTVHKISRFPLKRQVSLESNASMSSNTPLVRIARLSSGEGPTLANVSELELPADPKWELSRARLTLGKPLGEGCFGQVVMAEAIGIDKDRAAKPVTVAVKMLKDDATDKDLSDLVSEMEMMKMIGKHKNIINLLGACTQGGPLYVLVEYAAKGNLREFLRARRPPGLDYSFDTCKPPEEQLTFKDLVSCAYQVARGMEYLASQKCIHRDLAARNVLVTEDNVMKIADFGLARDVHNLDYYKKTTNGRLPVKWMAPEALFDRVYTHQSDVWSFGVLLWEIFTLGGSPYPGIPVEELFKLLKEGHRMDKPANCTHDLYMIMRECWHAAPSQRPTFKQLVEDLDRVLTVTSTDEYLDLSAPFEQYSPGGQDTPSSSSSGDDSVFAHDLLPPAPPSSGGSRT
# protocolSummary: FGFR Enzymatic Assay (FRET peptide phosphorylation), FGFR3
pIC50: −log10 of the molar value.

The cases that follow already have their pIC50 on record.
{"columns": ["compound", "measuredMetric", "result"],
 "data": [
  ["COc1cc2[nH]nc(-c3cnn(C4CN(C(=O)[C@@H]5CCN5CCF)C4)c3)c2nc1-c1cccc2c1CCC2", "pIC50", "> 8.22"],
  ["COc1cc2[nH]nc(-c3ccc(C4CCC(C(=O)O)CC4)nc3)c2nc1-c1cccc(C)c1C (stereo not drawn)", "pIC50", "> 8.22"],
  ["COc1cc2[nH]nc(-c3ccc(C45CC4CN(CCO)C5)nc3)c2nc1-c1cccc2c1CCC2 (stereo not drawn) [Example 194A]", "pIC50", "> 8.22"]
]}

# input # query: pIC50 of entry COc1cc2[nH]nc(-c3ccc(C45CC4CN(C(=O)CO)C5)nc3)c2nc1-c1cccc2c1CCC2 (single isomer, unassigned) [Example 191B]
# output > 8.22

# input For `COc1cc2[nH]nc(-c3ccc(N4CCN(C)CC4)nc3)c2nc1-c1cccc(C)c1C` , what is its reported pIC50?
# output > 8.22

# input # pIC50 lookup, item `[2H]C([2H])([2H])c1cccc(-c2nc3c(-c4ccc(N5CCN(C)CC5)nc4)n[nH]c3cc2OC)c1C`
# output > 8.22

###

Entries annotated with measured IC50
# targetDesc: wild-type un-phosphorylated FGFR1 (Homo sapiens)
# Sequence (P11362 22-822): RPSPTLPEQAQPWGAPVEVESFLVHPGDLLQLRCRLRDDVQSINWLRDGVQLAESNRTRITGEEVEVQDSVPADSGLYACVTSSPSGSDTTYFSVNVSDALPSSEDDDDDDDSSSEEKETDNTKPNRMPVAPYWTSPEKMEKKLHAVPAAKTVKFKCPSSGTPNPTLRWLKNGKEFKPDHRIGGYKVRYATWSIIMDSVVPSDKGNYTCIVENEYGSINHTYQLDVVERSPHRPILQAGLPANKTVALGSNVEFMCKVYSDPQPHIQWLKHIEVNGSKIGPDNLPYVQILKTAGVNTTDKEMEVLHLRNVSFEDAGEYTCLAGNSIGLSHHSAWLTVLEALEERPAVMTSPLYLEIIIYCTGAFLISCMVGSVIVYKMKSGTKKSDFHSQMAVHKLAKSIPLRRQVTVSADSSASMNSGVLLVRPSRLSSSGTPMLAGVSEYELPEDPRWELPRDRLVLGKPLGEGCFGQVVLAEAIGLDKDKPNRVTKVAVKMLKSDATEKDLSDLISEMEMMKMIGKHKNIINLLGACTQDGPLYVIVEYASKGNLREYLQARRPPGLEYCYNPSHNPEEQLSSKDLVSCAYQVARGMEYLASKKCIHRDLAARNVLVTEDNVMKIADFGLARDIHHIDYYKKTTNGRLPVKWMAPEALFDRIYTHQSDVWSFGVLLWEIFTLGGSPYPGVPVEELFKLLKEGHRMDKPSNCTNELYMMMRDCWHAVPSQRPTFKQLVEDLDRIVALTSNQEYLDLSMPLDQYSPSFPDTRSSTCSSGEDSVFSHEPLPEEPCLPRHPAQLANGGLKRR
# protocolSummary: FGFR Enzymatic Assay (FRET peptide phosphorylation), FGFR1
# conditionParameters: FGFR1, wild-type un-phosphorylated FGFR1; pre-incubated for 4 hours

{"columns": ["compound", "IC50"],
 "data": [
  ["Cc1cc2[nH]nc(-c3cnn(C)c3)c2nc1-c1cccc(C)c1C [Example 40]", "> 100 nM"],
  ["COc1cc2[nH]nc(-c3ccc(N4CCC(C(=O)N(C)C)CC4)nc3)c2nc1-c1cccc(C)c1C [Example 50]", "> 100 nM"],
  ["COc1cc2[nH]nc(-c3ccc(N4CCN(C)C(=O)C4)nc3)c2nc1-c1cccc(C)c1C [Example 45]", "> 100 nM"]
]}

# input Request the reported IC50 associated with COc1cc2[nH]nc(-c3cnn(C4CC4)c3)c2nc1-c1cccc2c1CCC2 [Example 29]
# output 40 to 100 nM

# input Tell me the measured IC50 of COc1cc2[nH]nc(-c3cnn(C4CC(C#N)C4)c3)c2nc1-c1cccc2c1CCC2 (stereo not shown) [Example 16] , please.
# output 40 to 100 nM

# input Which IC50 reading was recorded for the compound COc1cc2[nH]nc(-c3ccc(N4CC[C@H](N(C)C(=O)CO)C4)nc3)c2nc1-c1cccc(C)c1C [Example 88] ?
# output 40 to 100 nM

# input Suppose we examine the compound COc1cc2[nH]nc(-c3ccc(CN4CCN(C)C(=O)[C@@H]4C)nc3)c2nc1-c1cccc2c1CCC2 [Example 199] ; what IC50 value has been reported?
# output 40 to 100 nM

# input Fill blank: measured IC50 of the compound COc1cc2[nH]nc(-c3ccc(N4C[C@@H](F)[C@@H](N)C4)nc3)c2nc1-c1cccc(C)c1C [Example 80] is ____.
# output 40 to 100 nM

# input // IC50 lookup, key: CC(=O)N1CCN(c2ccc(-c3n[nH]c4cc(OC(F)F)c(-c5cccc(C)c5C)nc34)cn2)CC1 [Example 6]
# output > 100 nM

# input Entry under review: COc1cc2[nH]nc(-c3ccc(N4CCOCC4)nc3)c2nc1-c1cccc(CC#N)c1C [Example 56] . Reported IC50?
# output > 100 nM

# input Could you share which IC50 value was measured for COc1cc2[nH]nc(-c3ccc(N4CCC(C)(C(=O)O)CC4)nc3)c2nc1-c1cccc(C)c1C [Example 51] ?
# output 40 to 100 nM

###

# targetDesc: wild-type un-phosphorylated FGFR4 (Homo sapiens, UniProt P22455)
# Sequence (P22455 22-802): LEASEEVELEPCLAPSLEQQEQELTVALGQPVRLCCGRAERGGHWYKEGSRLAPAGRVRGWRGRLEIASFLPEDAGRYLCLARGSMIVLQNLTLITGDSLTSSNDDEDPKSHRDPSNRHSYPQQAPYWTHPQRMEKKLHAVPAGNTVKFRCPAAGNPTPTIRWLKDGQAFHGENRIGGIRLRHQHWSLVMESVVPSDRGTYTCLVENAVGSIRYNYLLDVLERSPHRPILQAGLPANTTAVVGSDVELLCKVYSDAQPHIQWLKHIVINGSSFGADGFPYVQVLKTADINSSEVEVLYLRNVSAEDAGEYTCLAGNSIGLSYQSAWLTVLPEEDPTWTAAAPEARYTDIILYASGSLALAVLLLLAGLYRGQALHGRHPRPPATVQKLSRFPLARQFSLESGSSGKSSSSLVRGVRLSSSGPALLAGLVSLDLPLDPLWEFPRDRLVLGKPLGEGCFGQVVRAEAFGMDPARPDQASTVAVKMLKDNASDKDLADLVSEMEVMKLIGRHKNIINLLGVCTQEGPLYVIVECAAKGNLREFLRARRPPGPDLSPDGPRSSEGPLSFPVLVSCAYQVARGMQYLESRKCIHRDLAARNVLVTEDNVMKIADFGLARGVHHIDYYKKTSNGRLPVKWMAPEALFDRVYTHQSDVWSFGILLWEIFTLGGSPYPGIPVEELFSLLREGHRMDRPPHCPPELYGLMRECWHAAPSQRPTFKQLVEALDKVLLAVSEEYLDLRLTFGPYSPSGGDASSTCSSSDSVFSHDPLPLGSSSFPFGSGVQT
# protocolSummary: FGFR Enzymatic Assay (FRET peptide phosphorylation), FGFR4
pIC50: −log10 of the molar value.
measuredMetric: pIC50

Some compounds with known pIC50 results, for comparison:
{"columns": ["compound", "pIC50"],
 "data": [
  ["COc1cc2[nH]nc(-c3cnn([C@H]4CC[C@H](O)CC4)c3)c2nc1-c1cccc2c1CCC2", "< 7.00"],
  ["COc1cc2[nH]nc(-c3ccc(CN4CCC(O)CC4)nc3)c2nc1-c1cccc2c1CCC2", "7.00 to 7.40"],
  ["COc1cc2[nH]nc(-c3ccc(C45CC4CN(CCO)C5)cc3)c2nc1-c1cccc2c1CCC2 (stereo not shown)", "7.00 to 7.40"]
]}

# input Given the entry COc1cc2[nH]nc(-c3ccc(C4CCC(N(C)S(C)(=O)=O)C4)nc3)c2nc1-c1cccc2c1CCC2 (stereo not shown) , report its measured pIC50.
# output < 7.00

# input GET /values?readout=pIC50&item= COc1cc2[nH]nc(-c3ccc(C4CCC(NC(=O)CO)C4)nc3)c2nc1-c1cccc2c1CCC2 (stereo not shown)
# output 7.00 to 7.40

# input Reported pIC50, compound COc1cc2[nH]nc(-c3ccc(C4CCC(O)CC4)nc3)c2nc1-c1cccc2c1CCC2C#N (stereo not shown) : ____
# output 7.00 to 7.40

# input I'd like to know its pIC50. The compound in question is [2H]C1(n2cc(-c3n[nH]c4cc(OC)c(-c5cccc6c5CCC6C#N)nc34)cn2)CCN(C(=O)C2CCOCC2)CC1 (stereo not shown)
# output 7.00 to 7.40

Data origin, for the record: patent US12083124B2
